- experimental protocol: qHTS for Inhibitors of human tyrosyl-DNA phosphodiesterase 1 (TDP1): qHTS in cells in absence of CPT; further: nearly all actives have a fitted effect of over 55% in size; further: potency means the concentration at half of the fitted maximal effect
- experimental conditions: DT40 Tdp1-/- hTDP1 cells, no CPT, ATP luminescence, 48 h
- Experimental: Human tyrosyl-DNA phosphodiesterase 1 (TDP1) is a novel repair gene, and we propose to use it as a new target for anticancer drug development. […] For the primary screen, Tdp1-/-;hTDP1 cells will be exposed to small molecules in the presence or absence of CPT, and their growth kinetics will be evaluated after 48 hours by measuring ATP activity. […] The hit compounds will then be evaluated in the presence or absence of CPT using Tdp1-/- cells. […]
Out of some 420,000 compounds screened, about 64,000 (15%) were called active. Roughly 27% stayed inconclusive and do not appear here. The list is a sample of the results.
measurement type: Potency

Recorded results for 5 molecules are shown here.
{"molecule": "CCOc1ccc(/C=C(\\C#N)c2nc3ccccc3c(=O)[nH]2)cc1OC", "Potency": "inactive"}
{"molecule": "Cc1cc(C)n(S(=O)(=O)c2cccc([N+](=O)[O-])c2)n1", "Potency": "inactive"}
{"molecule": "CCN(CC(=O)NCc1ccc(Cl)cc1)C(=O)CSc1ccccc1", "Potency": "inactive"}
{"molecule": "CCCCNC(=O)CCn1nc(-c2ccc(Cl)cc2)ccc1=O", "Potency": "inactive"}
{"molecule": "Cc1cc(NC(C)C)n2c(nc3ccccc32)c1C#N", "Potency": "inactive"}

[ask] Look up Potency for this molecule: OC(c1ccccc1)(c1ccccc1)C1CCN(CCCOc2ccccc2)CC1
[reply] 16.4 µM (active)

[ask] # Potency lookup, item Cc1ccc2nc(/C(C#N)=C/c3ccccc3F)[nH]c2c1
[reply] 18.4 µM (active)

[ask] What measured Potency goes with O=C(CSc1ncn[nH]1)Nc1nc2c(F)c(F)c(F)cc2s1 ?
[reply] inactive

[ask] Consider the molecule COc1cc2nc(C#Cc3nc4cc(OC)c(OC)cc4[nH]3)[nH]c2cc1OC and give its measured Potency.
[reply] inactive

[ask] Which measured Potency value corresponds to CCOC(=O)c1ccc(-c2ccc(/C=C(\C#N)C(=O)Nc3ccc(OCC)cc3)o2)cc1 ?
[reply] inactive

[ask] Please report the recorded Potency for Cc1ccsc1C(=O)OCC(=O)NCCc1ccccc1 .
[reply] inactive

[ask] Any idea what Potency was measured for O=C(CN1C(=O)NC2(CCOc3ccccc32)C1=O)NCc1ccc(F)cc1 (stereo not drawn) ?
[reply] inactive

[ask] Entry O=C(O)c1cccc(N2C(=O)Nc3ccccc3N2O)c1 : reported Potency = ?
[reply] inactive

[ask] // lookup Potency for Cc1cc(C)cc(C(=O)OCC(=O)NCCNC(=O)COC(=O)c2cc(C)cc(C)c2)c1
[reply] inactive

[ask] Value lookup for Potency; key = Cc1ccc2nc(/C(C#N)=C\c3ccc(OC(=O)c4cccs4)cc3)[nH]c2c1
[reply] 6.51 µM (active)

[ask] Query (molecule): c1ccc(-c2ccc(OCCN3CCOCC3)cc2)cc1 ; field requested: Potency
[reply] inactive

[ask] Could you tell me which Potency is on file for O=C(CC[C@H]1O[C@@H](n2ccc(=O)[nH]c2=O)[C@H](O)[C@@H]1O)N[C@H](Cc1ccccc1)C(=O)NCc1ccco1 ?
[reply] inactive

[ask] Quick check: Potency of O=[N+]([O-])c1cc([N+](=O)[O-])c(Oc2cc(F)cc(F)c2F)cc1NN1CCCCC1 ?
[reply] inactive

[ask] What does the data say about its Potency? Entry: Cc1cc(F)ccc1NC1(c2ccccc2)C(=O)c2ccccc2C1=O
[reply] inactive

[ask] Please report the recorded Potency for CC1(Oc2ccccc2-c2ccno2)CCN(Cc2ccc(-c3ccccc3)o2)C1 (stereo not drawn) .
[reply] 23.1 µM (active)

[ask] // lookup Potency for Cc1ccc(NC(=O)CN2c3ccccc3S(=O)(=O)c3ccccc32)cc1F
[reply] 18.4 µM (active)

[ask] Dear colleague, I am looking for the recorded Potency of the following molecule: CN(CCc1ccccn1)C(=O)c1ccc(OC2CCN(CCc3ccccc3)CC2)cc1
[reply] inactive

[ask] I am curious: what Potency value has been reported for COc1cc(C(=O)OCc2ccc([N+](=O)[O-])cc2)cc(OC)c1OC ?
[reply] inactive

[ask] Item under review: Cc1ccc2nc(S(=O)(=O)O)[nH]c2c1 . Reported Potency?
[reply] inactive

[ask] Which Potency is reported for this molecule? CC(=O)Nc1ccccc1C(=O)C(=O)Nc1ccc(F)cc1
[reply] inactive

[ask] Need Potency, item CN(C)S(=O)(=O)c1cc(NC(=O)CN2C(=O)NC3(CCCc4ccccc43)C2=O)ccc1Cl (stereo not drawn)
[reply] 14.6 µM (active)

[ask] Reported Potency for Cn1cnnc1SCC(=O)Nc1ccc(N2CCOCC2)cc1 : what is it?
[reply] inactive
